- Test system: Ba/F3 Bcr-Abl T315I cells
- Measurement Notes: Cell proliferation analysis, Ba/F3 Bcr-Abl T315I
- Assay type: cell-based
- Condition Description: Mus musculus, BaF3, 72 h; 3 days, CellTiter-Glo
Property: IC50; scope: individual compounds

Please review the entries below; each comes with its answer.
# get_value(readout='IC50', item= "Cc1ccc(C(=O)Nc2ccc(CN3CCN(C)CC3)c(C(F)(F)F)c2)cc1C#Cc1cn(C(C)C)c2ncnc(N)c12" ) 20 to 50 nM

Param item = "CCn1cc(C#Cc2cc(C(=O)Nc3cc(-n4cnc(C)c4)cc(C(F)(F)F)c3)ccc2C)c2c(N)ncnc21" ; retrieve measured IC50. 10 to 20 nM

# input compound: "Cc1ccc(C(=O)Nc2ccc(CN3CCN(C)CC3)c(C(F)(F)F)c2)cc1C#Cc1nc(C(C)C)n2ccnc(N)c12" ; wanted: its IC50 50 to 1000 nM

What measured IC50 goes with "Cc1ccc(C(=O)Nc2ccc(CN3CCN(C)CC3)c(C(F)(F)F)c2)cc1C#Cc1cn([C@H]2CC[C@H](O)CC2)c2ncnc(N)c12" ? 20 to 50 nM

Fill blank: measured IC50 of the compound "Cc1ccc(C(=O)Nc2cccc(C(F)(F)F)c2)cc1C#Cc1cn(C)c2ncnc(N)c12" is ____. 20 to 50 nM

Please give the measured IC50 for this compound: "Cc1ccc(C(=O)Nc2ccc(CN3CCN(C)CC3)c(C(F)(F)F)c2)cc1C#Cc1cn(C)c2ncnc(N)c12" ≤ 10 nM

Report IC50 for "CCc1nc(C#Cc2cc(C(=O)Nc3ccc(CN4CCN(C)CC4)c(C(F)(F)F)c3)ccc2C)c2c(N)nccn12" please. 20 to 50 nM

Requested read-out: IC50. Entry: "Cc1cn(-c2cc(NC(=O)c3ccc(C)c(C#Cc4cn(C)c5ncnc(N)c45)c3)cc(C(F)(F)F)c2)cn1" 10 to 20 nM

From here, focus on the item given below.
# get_value(readout='IC50', item= "CCn1cc(C#Cc2cc(NC(=O)c3ccc(CN4CCN(C)CC4)c(C(F)(F)F)c3)ccc2C)c2c(N)ncnc21" ) ≤ 10 nM

* * *

- System: Ba/F3 Bcr-Abl T315I cells
- Measurement Notes: Cell proliferation analysis, Ba/F3 Bcr-Abl T315I
- Assay type: cell-based
- Condition Description: ratio of Ba/F3 parental to Ba/F3 Bcr-Abl T315I
Value Kind: Selectivity [Ba/F3 (parental/Bcr-Abl ^T315I)]

// below: answered compounds
Recorded Selectivity [Ba/F3 (parental/Bcr-Abl ^T315I)] for "CCn1cc(C#Cc2cc(NC(=O)c3cccc(C(F)(F)F)c3)ccc2C)c2c(N)ncnc21" , please? 50~100

What measured Selectivity [Ba/F3 (parental/Bcr-Abl ^T315I)] goes with "CCc1nc(C#Cc2cc(C(=O)Nc3ccc(CN4CCN(C)CC4)c(C(F)(F)F)c3)ccc2C)c2c(N)nccn12" ? 50~100

Quick one: Selectivity [Ba/F3 (parental/Bcr-Abl ^T315I)] of "Cc1ccc(C(=O)Nc2ccc(CN3CCN(C)CC3)c(C(F)(F)F)c2)cc1C#Cc1cn(C)c2ncnc(N)c12" ? 150~500

// returns reported Selectivity [Ba/F3 (parental/Bcr-Abl ^T315I)] for input "CCn1cc(C#Cc2cc(C(=O)Nc3cccc(C(F)(F)F)c3)ccc2C)c2c(N)ncnc21" 100~150

New cases:
Entry "Cc1ccc(NC(=O)c2ccc(CN3CCN(C)CC3)c(C(F)(F)F)c2)cc1C#Cc1cn(C)c2ncnc(N)c12" : reported Selectivity [Ba/F3 (parental/Bcr-Abl ^T315I)] = ? 150~500
